Target: Human recombinant acetylcholinesterase (Homo sapiens (Human), UniProt P22303)
Sequence (P22303 32-614 limits assumed): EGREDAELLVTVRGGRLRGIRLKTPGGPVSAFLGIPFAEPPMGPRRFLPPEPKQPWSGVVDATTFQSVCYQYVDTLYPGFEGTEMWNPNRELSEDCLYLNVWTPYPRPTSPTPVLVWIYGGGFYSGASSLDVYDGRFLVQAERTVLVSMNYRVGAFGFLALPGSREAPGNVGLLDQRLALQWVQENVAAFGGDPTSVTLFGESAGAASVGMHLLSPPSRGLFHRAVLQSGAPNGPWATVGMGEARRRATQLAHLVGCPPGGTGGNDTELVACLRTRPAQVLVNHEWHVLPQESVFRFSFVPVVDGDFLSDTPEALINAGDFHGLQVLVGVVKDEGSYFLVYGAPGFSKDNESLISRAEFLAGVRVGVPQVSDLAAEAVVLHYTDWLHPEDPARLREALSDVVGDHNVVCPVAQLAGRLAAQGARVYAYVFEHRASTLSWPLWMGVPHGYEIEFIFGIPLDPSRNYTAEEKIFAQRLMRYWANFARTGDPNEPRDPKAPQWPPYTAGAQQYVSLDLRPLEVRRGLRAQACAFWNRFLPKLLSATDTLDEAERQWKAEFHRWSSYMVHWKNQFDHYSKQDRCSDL
Assay: biochemical
pIC50: −log10 of the molar value.
As shown below, each of these compounds has a reported pIC50 value.

| compound | relation | pIC50 |
| --- | --- | --- |
| CCN(C)C(=O)Oc1cc(C(C)N(C)C)c2c(c1)oc(=O)c1ccccc12 (racemic) | < | 4.40 |
| CC(c1cc(O)c2c(c1)oc(=O)c1ccccc12)N(C)C (racemic) | = | 4.72 |
| CC(c1ccc2c(c1)oc(=O)c1ccccc12)N(C)C (racemic) | = | 4.96 |
| COc1cc(C(C)N(C)C)cc2oc(=O)c3ccccc3c12 (racemic) | = | 5.55 |
| CC(c1cc(O)cc2oc(=O)c3ccccc3c12)N(C)C (racemic) | = | 4.48 |

---

Target: human recombinant butyrylcholinesterase (Homo sapiens (Human))
Sequence (P06276 29-602 limits assumed): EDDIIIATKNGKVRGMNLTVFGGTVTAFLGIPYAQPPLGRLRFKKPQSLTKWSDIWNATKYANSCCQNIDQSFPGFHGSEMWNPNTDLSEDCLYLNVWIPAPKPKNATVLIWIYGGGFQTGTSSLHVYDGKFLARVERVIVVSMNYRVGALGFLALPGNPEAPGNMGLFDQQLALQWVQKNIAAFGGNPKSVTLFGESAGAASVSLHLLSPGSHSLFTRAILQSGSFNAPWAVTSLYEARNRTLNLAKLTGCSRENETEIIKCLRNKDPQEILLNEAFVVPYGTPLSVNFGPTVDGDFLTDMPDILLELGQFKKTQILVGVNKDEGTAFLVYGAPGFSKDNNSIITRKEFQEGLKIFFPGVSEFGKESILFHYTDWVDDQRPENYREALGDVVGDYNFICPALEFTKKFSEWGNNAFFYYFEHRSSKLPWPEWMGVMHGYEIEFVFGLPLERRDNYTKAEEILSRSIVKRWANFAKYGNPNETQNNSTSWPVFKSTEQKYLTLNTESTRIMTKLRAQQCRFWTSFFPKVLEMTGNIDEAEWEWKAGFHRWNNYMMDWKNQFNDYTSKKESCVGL
Test: biochemical
Type: biochemical
Details: read-out: BCHE Inhibitory Activity IC50
pIC50: −log10 of the molar value.

| compound | target_system | pIC50 |
| --- | --- | --- |
| C[C@@H](c1ccc2c(c1)oc(=O)c1ccccc12)N(C)C [FAR-02-2S] | human recombinant butyrylcholinesterase (Homo sapiens (Human)) | 4.79 |

---

Target: Human recombinant acetylcholinesterase (Homo sapiens (Human), UniProt P22303)
Assay: biochemical
Details: read-out: ACHE Inhibitory Activity IC50

| compound | IC50 (µM) |
| --- | --- |
| C[C@@H](c1ccc2c(c1)oc(=O)c1ccccc12)N(C)C [FAR-02-2S] | 7.9 |

---

Target: human recombinant butyrylcholinesterase (Homo sapiens (Human))
Assay: biochemical
Assay type: biochemical
readout_kind: IC50

| compound | target_system | result |
| --- | --- | --- |
| CC(c1cc(O)c2c(c1)oc(=O)c1ccccc12)N(C)C (racemic) | human recombinant butyrylcholinesterase (Homo sapiens (Human)) | 4.2 µM |
| CC(c1cc(O)cc2oc(=O)c3ccccc3c12)N(C)C (racemic) | human recombinant butyrylcholinesterase (Homo sapiens (Human)) | > 40 µM |
| CCN(C)C(=O)Oc1cc(C(C)N(C)C)c2c(c1)oc(=O)c1ccccc12 (racemic) | human recombinant butyrylcholinesterase (Homo sapiens (Human)) | 8.5 µM |
| COc1cc(C(C)N(C)C)c2c(c1)oc(=O)c1ccccc12 (racemic) | human recombinant butyrylcholinesterase (Homo sapiens (Human)) | 24.7 µM |
| CC(c1ccc2c(c1)oc(=O)c1ccccc12)N(C)C (racemic) | human recombinant butyrylcholinesterase (Homo sapiens (Human)) | 17.9 µM |
| COc1cc(C(C)N(C)C)cc2oc(=O)c3ccccc3c12 (racemic) | human recombinant butyrylcholinesterase (Homo sapiens (Human)) | 21.1 µM |
| CCN(C)C(=O)Oc1cc(C(C)N(C)C)cc2oc(=O)c3ccccc3c12 (racemic) | human recombinant butyrylcholinesterase (Homo sapiens (Human)) | 12.7 µM |

These entries and their values trace back to patent US9586925B2.
